Biological target: Topo IV from S. aureus (ParE) (Staphylococcus aureus)
Sequence (P0C1S7 whole entry): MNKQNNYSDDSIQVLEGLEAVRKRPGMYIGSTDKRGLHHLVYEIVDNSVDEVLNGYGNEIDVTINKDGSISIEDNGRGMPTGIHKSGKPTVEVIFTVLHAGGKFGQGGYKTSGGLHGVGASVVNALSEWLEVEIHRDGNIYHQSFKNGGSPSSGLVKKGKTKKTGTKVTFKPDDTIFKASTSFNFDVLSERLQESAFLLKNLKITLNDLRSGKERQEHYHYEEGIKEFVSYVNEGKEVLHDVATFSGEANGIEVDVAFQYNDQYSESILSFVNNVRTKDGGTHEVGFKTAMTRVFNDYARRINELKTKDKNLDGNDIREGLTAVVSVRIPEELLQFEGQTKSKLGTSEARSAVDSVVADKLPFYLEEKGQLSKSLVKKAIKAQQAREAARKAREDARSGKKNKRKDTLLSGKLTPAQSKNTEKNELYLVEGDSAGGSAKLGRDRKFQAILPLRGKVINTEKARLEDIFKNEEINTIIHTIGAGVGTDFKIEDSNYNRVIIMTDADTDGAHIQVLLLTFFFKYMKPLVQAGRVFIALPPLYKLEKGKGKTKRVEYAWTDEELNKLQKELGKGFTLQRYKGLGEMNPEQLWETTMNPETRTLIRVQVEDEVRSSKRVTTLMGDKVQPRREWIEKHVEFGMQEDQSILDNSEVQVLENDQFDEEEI
Sequence (P0C1U9 whole entry partner): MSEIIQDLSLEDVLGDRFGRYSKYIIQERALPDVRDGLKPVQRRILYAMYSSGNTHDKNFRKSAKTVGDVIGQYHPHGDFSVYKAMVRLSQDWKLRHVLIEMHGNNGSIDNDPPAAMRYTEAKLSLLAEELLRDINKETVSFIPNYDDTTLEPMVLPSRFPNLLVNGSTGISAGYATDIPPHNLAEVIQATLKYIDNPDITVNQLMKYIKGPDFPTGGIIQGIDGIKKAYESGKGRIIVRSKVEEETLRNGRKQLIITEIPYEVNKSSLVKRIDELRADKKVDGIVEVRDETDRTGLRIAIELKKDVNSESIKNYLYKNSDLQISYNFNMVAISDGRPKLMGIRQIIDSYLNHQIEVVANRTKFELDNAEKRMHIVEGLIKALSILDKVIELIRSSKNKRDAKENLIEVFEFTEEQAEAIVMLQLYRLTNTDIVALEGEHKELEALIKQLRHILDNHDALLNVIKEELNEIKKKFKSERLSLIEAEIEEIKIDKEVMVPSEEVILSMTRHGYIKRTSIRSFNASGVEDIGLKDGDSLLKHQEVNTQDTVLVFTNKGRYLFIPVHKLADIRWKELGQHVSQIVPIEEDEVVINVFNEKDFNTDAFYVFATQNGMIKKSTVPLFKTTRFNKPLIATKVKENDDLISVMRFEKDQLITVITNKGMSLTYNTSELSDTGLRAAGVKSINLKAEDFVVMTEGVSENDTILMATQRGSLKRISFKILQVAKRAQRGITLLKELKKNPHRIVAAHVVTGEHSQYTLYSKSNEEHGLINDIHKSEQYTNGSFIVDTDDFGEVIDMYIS
Value Type: pIC50
// returns pIC50 (minus log10 of molar concentration), number only

Give the reported value of pIC50 for this record: CO[C@@H]1[C@@H](OC(N)=O)[C@@H](O)[C@H](Oc2ccc3c(O)c(NC(=O)c4ccc(O)c(CC=C(C)C)c4)c(=O)oc3c2C)OC1(C)C [Novobiocin] 6.66
